Test: Human liver microsomal (HLM) stability assay
Format: in vitro ADME
Conditions: both sexes, pH 7.4; human liver microsomes, 3 μM test compound; read-out: CLint (μL/min/mg protein) HLM
measured-attribute: microsomal CLint at 3 μM

Worked examples follow.
FC1(F)CCC(C(CC2CCCCN2)C2CCCCC2)CC1 (mixture of isomers)
2.6 µL/min/mg
FC1CCC(C(CC2CCCCN2)C2CCCCC2)CC1 (mixture of isomers)
21.3 µL/min/mg
FC1(F)CCC(C(CC2CCCCN2)C2CCC(F)(F)CC2)CC1 (stereo not shown)
0.3 µL/min/mg

Then there is this compound:
# input Answer with reported microsomal CLint at 3 μM of C1CCC(C(CC2CCCCN2)C2CCCCC2)CC1 (stereo not shown)
# output 13.8 µL/min/mg

###

Test: Rat liver microsomal (RLM) stability assay
Type: in vitro ADME
Settings: both sexes, pH 7.4; rat liver microsomes, 3 μM test compound; read-out: CLint (μL/min/mg protein) RLM
Below is a list of entries, each paired with its recorded microsomal CLint at 3 μM value.
Reply numerically in µL/min/mg, unit not repeated.

# input Please look at this molecule and report its microsomal CLint at 3 μM: FC1CCC(C(CC2CCCCN2)C2CCCCC2)CC1 (mixture of isomers) [FPER-003]
# output 129

# input Read the entry FC1(F)CCC(C(CC2CCCCN2)C2CCC(F)(F)CC2)CC1 (stereo not shown) [FPER-002] and write its reported microsomal CLint at 3 μM.
# output 0.8

# input Give the reported value of microsomal CLint at 3 μM for this record: C1CCC(C(CC2CCCCN2)C2CCCCC2)CC1 (stereo not shown) [Perhexiline, 2-(2,2-dicyclohexylethyl)piperidine]
# output 65

# input // Input: FC1(F)CCC(C(CC2CCCCN2)C2CCCCC2)CC1 (mixture of isomers) [FPER-001] . Output its microsomal CLint at 3 μM only.
# output 19

###

Target: CYP2D6 (Homo sapiens, UniProt P10635)
Construct: purchased Cypex Ltd; host or cells: bacterial membranes (Bactosomes)
Sequence (P10635 whole entry): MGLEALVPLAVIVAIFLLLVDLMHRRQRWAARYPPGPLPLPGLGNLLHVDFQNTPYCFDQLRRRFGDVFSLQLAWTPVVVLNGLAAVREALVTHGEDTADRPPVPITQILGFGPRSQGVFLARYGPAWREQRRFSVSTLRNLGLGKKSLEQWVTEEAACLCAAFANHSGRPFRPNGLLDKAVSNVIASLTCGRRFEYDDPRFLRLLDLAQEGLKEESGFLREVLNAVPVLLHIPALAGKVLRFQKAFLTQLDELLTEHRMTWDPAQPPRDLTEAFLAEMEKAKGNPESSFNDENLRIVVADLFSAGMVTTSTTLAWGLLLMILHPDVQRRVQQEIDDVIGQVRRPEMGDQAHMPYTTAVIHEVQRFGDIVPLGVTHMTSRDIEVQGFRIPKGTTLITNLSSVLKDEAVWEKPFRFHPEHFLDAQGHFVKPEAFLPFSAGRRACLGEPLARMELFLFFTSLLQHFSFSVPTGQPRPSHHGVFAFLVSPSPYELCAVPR
Test: Cytochrome P450 2D6 reaction phenotyping (Bactosomes)
Type: in vitro ADME
Details: human, pH 7.4; recombinant CYP2D6 Bactosomes, 5 μM test compound; read-out: T½
Consider the following compounds and their measured half-life at 5 μM readings.
Expressed in min, but write only the number.

FC1(F)CCC(C(CC2CCCCN2)C2CCC(F)(F)CC2)CC1 (stereo not drawn)
151
FC1CCC(C(CC2CCCCN2)C2CCCCC2)CC1 (mixture of isomers)
16

# input Report half-life at 5 μM for C1CCC(C(CC2CCCCN2)C2CCCCC2)CC1 (stereo not drawn)
# output 14

###

Test: Rat oral pharmacokinetics, plasma and myocardium
Type: in vivo, male Sprague-Dawley rats
Details: male, Sprague-Dawley, 10 mg/kg oral, plasma, 8 h, read-out: Conc., plasma, 8 h
measured-attribute: concentration at 8 h (ng/mL)
Hi! Could you send only the number? It should be in ng/mL, unit omitted.

FC1(F)CCC(C(CC2CCCCN2)C2CCCCC2)CC1 (mixture of isomers)
179

Note: attention shifts to another entry.
# input Please list concentration at 8 h recorded for the compound C1CCC(C(CC2CCCCN2)C2CCCCC2)CC1 (centres unmarked)
# output 31.4

###

Assay: Human liver microsomal (HLM) stability assay
Type: in vitro ADME
Settings: both sexes, pH 7.4; human liver microsomes, 3 μM test compound; read-out: T½ (min) HLM
measured-attribute: half-life at 3 μM
Please answer in the form of a number followed by its unit of measurement.

FC1CCC(C(CC2CCCCN2)C2CCCCC2)CC1 (mixture of isomers)
65 min
FC1(F)CCC(C(CC2CCCCN2)C2CCC(F)(F)CC2)CC1 (stereo not shown)
4210 min

# input Identify measured half-life at 3 μM corresponding to FC1(F)CCC(C(CC2CCCCN2)C2CCCCC2)CC1 (mixture of isomers)
# output 525 min

# input Return half-life at 3 μM for the following compound: C1CCC(C(CC2CCCCN2)C2CCCCC2)CC1 (stereo not shown)
# output 100 min
